# assay.target: UniProt Q76NL8
# Sequence (Q76NL8 whole entry): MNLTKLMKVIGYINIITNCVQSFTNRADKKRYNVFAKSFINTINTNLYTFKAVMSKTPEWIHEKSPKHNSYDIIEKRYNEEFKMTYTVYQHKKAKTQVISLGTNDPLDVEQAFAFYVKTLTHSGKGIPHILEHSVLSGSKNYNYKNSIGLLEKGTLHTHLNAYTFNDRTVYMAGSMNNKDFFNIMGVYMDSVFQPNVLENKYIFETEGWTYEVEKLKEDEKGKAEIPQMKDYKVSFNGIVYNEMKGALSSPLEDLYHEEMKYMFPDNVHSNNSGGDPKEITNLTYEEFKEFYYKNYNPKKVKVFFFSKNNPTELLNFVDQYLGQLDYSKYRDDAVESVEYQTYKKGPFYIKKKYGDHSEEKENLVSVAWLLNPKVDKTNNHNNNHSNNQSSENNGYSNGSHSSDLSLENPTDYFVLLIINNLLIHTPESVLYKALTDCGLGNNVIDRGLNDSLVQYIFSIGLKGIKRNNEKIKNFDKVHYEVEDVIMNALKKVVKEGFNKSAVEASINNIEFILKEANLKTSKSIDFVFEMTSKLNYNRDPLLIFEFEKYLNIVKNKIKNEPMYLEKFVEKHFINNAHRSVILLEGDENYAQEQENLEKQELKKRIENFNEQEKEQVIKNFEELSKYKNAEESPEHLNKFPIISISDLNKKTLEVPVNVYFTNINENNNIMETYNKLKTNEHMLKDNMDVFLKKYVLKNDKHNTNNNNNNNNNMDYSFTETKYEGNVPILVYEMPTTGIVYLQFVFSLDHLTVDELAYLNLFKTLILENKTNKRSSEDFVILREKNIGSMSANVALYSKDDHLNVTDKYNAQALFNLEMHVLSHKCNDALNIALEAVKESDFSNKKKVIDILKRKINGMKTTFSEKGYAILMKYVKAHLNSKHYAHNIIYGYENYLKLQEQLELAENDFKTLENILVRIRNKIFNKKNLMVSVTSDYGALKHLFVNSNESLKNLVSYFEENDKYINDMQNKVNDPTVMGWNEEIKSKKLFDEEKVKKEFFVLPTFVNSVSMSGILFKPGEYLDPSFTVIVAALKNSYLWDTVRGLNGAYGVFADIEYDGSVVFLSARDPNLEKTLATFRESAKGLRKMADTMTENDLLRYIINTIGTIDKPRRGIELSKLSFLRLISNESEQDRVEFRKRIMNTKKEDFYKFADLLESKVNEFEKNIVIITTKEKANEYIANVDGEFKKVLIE
# assay.name: IC50 for competition of protein binding to Kinobeads;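 also: native unpurified kinases from lysate captured on beads bearing immobilized kinase inhibitors, with bead-bound kinases quantified by mass spectrometry across compound doses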
# condition.notes: assay detail: Kinobeads competition in P. falciparum blood-stage lysate
pIC50: −log10 of the molar value.
reported.endpoint: pIC50

*Q* Item O=c1[nH]c2ccc(Cl)cc2c(NC2CN3CCC2CC3)c1-c1nc2ccccc2[nH]1 (stereo unspecified) [CHIR-124] : provide pIC50
*A* < 4.70

* * *

# assay.target: UniProt Q8I328
# assay.name: IC50 for competition of protein binding to Kinobeads
# condition.notes: assay detail: Kinobeads competition in P. falciparum blood-stage lysate
reported.endpoint: IC50

*Q* Item O=c1[nH]c2ccc(Cl)cc2c(NC2CN3CCC2CC3)c1-c1nc2ccccc2[nH]1 (stereo unspecified) : provide IC50
*A* > 20 µM

* * *

# assay.target: UniProt C6KST5
# assay.name: IC50 for competition of protein binding to Kinobeads
# condition.notes: assay detail: Kinobeads competition in P. falciparum blood-stage lysate
pIC50: −log10 of the molar value.
reported.endpoint: pIC50

*Q* Item O=c1[nH]c2ccc(Cl)cc2c(NC2CN3CCC2CC3)c1-c1nc2ccccc2[nH]1 (stereo unspecified) : provide pIC50
*A* < 4.70

* * *

# assay.target: UniProt Q8IM66
# assay.name: IC50 for competition of protein binding to Kinobeads
# condition.notes: assay detail: Kinobeads competition in P. falciparum blood-stage lysate
pIC50: −log10 of the molar value.
reported.endpoint: pIC50

*Q* Supply pIC50 measured with UniProt Q8IM66 for O=c1[nH]c2ccc(Cl)cc2c(NC2CN3CCC2CC3)c1-c1nc2ccccc2[nH]1 (stereo unspecified) .
*A* < 4.70

* * *

# assay.target: UniProt Q8II71
# assay.name: IC50 for competition of protein binding to Kinobeads
# condition.notes: assay detail: Kinobeads competition in P. falciparum blood-stage lysate
pIC50: −log10 of the molar value.
reported.endpoint: pIC50

*Q* Item O=c1[nH]c2ccc(Cl)cc2c(NC2CN3CCC2CC3)c1-c1nc2ccccc2[nH]1 (stereo unspecified) : provide pIC50
*A* < 4.70

* * *

# assay.target: UniProt Q8II60
# assay.name: IC50 for competition of protein binding to Kinobeads
# condition.notes: assay detail: Kinobeads competition in P. falciparum blood-stage lysate
reported.endpoint: IC50

*Q* Supply IC50 measured with UniProt Q8II60 for O=c1[nH]c2ccc(Cl)cc2c(NC2CN3CCC2CC3)c1-c1nc2ccccc2[nH]1 (stereo unspecified) [CHIR-124] .
*A* > 20 µM

* * *

# assay.target: UniProt Q8IJN9
# assay.name: IC50 for competition of protein binding to Kinobeads
# condition.notes: assay detail: Kinobeads competition in P. falciparum blood-stage lysate
pIC50: −log10 of the molar value.
reported.endpoint: pIC50

*Q* Item O=c1[nH]c2ccc(Cl)cc2c(NC2CN3CCC2CC3)c1-c1nc2ccccc2[nH]1 (stereo unspecified) : provide pIC50
*A* < 4.70

* * *

# assay.target: UniProt Q8I374
# assay.name: IC50 for competition of protein binding to Kinobeads
# condition.notes: assay detail: Kinobeads competition in P. falciparum blood-stage lysate
pIC50: −log10 of the molar value.
reported.endpoint: pIC50

*Q* Item O=c1[nH]c2ccc(Cl)cc2c(NC2CN3CCC2CC3)c1-c1nc2ccccc2[nH]1 (stereo unspecified) : provide pIC50
*A* < 4.70

* * *

# assay.target: UniProt Q8IEF0
# assay.name: IC50 for competition of protein binding to Kinobeads
# condition.notes: assay detail: Kinobeads competition in P. falciparum blood-stage lysate
pIC50: −log10 of the molar value.
reported.endpoint: pIC50

*Q* Supply pIC50 measured with UniProt Q8IEF0 for O=c1[nH]c2ccc(Cl)cc2c(NC2CN3CCC2CC3)c1-c1nc2ccccc2[nH]1 (stereo unspecified) .
*A* < 4.70
